target: PIKFYVE (Homo sapiens, UniProt Q9Y2I7); test: Cell-based Pikfyve inhibition activity assay (EEA1 staining, mean vesicle size in BJ fibroblast cells); details: Table 4, 4 hours treatment, 3 μM Apilimod = 100% inhibition
Sequence (Q9Y2I7 whole entry): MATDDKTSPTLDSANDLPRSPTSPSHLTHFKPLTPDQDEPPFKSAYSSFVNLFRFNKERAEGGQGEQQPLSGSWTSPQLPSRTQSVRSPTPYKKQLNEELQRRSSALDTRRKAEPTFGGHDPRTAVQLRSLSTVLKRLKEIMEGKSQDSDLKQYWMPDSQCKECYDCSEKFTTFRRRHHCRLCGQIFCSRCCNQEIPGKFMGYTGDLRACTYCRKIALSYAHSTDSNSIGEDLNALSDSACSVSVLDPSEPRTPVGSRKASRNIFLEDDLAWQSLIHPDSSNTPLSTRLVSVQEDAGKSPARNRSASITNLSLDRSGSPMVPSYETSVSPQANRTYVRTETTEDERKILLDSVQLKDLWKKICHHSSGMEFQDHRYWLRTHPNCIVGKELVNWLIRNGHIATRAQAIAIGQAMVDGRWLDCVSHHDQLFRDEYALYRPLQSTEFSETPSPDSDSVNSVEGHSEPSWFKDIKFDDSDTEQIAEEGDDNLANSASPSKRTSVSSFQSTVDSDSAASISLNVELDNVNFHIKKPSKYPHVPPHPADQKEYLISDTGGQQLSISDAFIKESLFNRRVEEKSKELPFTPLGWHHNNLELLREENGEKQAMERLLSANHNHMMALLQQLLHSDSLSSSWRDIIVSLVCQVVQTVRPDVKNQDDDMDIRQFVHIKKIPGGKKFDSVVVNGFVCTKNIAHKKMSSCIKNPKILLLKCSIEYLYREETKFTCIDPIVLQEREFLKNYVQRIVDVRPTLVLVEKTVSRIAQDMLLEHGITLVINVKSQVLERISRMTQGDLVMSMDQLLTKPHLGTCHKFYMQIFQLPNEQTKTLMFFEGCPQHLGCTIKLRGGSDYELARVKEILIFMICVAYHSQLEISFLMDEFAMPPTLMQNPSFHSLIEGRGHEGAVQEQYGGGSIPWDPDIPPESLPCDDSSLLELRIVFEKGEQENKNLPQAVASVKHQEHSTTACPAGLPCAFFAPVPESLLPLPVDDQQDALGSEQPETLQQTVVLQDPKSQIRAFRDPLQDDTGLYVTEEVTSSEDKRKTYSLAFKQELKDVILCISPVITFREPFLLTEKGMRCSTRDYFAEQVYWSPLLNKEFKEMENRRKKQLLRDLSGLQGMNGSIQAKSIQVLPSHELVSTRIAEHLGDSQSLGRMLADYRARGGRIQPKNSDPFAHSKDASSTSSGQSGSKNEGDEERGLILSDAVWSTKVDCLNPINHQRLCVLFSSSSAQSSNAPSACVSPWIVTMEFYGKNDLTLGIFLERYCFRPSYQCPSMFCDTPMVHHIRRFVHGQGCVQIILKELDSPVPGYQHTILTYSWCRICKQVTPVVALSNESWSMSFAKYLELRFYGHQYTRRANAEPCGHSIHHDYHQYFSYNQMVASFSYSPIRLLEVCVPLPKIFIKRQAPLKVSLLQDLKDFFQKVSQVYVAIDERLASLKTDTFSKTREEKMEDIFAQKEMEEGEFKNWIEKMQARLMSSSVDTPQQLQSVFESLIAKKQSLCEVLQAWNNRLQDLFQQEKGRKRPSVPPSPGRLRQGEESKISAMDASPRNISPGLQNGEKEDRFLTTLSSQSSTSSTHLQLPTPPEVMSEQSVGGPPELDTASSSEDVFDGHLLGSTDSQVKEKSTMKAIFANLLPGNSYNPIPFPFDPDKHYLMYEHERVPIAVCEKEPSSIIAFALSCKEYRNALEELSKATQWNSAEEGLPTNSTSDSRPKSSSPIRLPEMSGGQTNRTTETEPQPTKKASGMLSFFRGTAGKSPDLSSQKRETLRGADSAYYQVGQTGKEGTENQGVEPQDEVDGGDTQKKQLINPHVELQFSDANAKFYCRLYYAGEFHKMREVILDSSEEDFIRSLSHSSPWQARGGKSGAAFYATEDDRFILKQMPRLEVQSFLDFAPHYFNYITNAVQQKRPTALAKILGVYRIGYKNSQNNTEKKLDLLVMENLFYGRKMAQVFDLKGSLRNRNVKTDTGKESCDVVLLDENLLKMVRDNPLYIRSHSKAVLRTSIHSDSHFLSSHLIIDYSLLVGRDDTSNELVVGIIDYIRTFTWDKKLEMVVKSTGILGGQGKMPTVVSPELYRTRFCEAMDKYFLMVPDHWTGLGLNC
READOUT_KIND: EC50

Exam item: Any idea what EC50 was measured for CCc1cccc(-c2ccn(-c3cc(N4CCOCC4)nc([C@@H](CO)OC)n3)n2)c1 [Compound 272] ?
Marked response: 0.1 to 0.5 µM

Exam item: # input compound: Cn1ccc(COc2nc(N3CCOCC3)cc(-n3ccc(-c4ccccc4)n3)n2)n1 [Compound 115] ; wanted: its EC50
Marked response: 0.1 to 0.5 µM

Exam item: Returns the measured EC50 for the input compound. Input: CN(C)Cc1cccc(-c2ccn(-c3cc(N4CCOCC4)nc(OCCc4cnn(C)c4)n3)n2)c1 [Compound 193]
Marked response: 0.1 to 0.5 µM

Exam item: Which EC50 reading was recorded for the compound Cn1cc(CCOc2nc(N3CCOCC3)cc(-n3ccc(-c4ccccn4)n3)n2)cn1 [Compound 194] ?
Marked response: 0.1 to 0.5 µM

Exam item: Return reported EC50; argument: Cn1cc(CCOc2nc(N3CCOCC3)cc(-n3ccc(C(=O)N4CCCCC4)n3)n2)cn1 [Compound 172]
Marked response: > 5 µM

Exam item: Report EC50 for COC(CC#N)c1nc(N2CCOCC2)cc(-n2ccc(-c3ccccc3)n2)n1 (stereo not shown) [Compound 182] please.
Marked response: 0.5 to 5 µM

Exam item: // lookup EC50 for Cc1cccc(-c2ccn(-c3cc(N4CCOCC4)nc(O)n3)n2)c1 [Compound 106]
Marked response: 0.5 to 5 µM

Exam item: Which EC50 is reported for this compound? CO[C@@H](CO)c1nc(N2CCOCC2)cc(-n2nc(-c3csc4ccccc34)cc2C)n1 [Compound 279]
Marked response: 0.5 to 5 µM

Exam item: EC50 for Cc1cccc(-c2cc(N3CCOCC3)n(-c3cc(N4CCOCC4)nc(OCCc4cnn(C)c4)n3)n2)c1 [Compound 237] ?
Marked response: < 0.02 µM

Exam item: What value of measured EC50 is listed for Cn1cc(COCc2nc(N3CCOCC3)cc(-n3ccc(-c4ccccc4)n3)n2)cn1 [Compound 298] ?
Marked response: 0.5 to 5 µM

Exam item: Data request, read-out EC50, for Cc1cccc(-c2ccn(-c3cc(N4CCOCC4)nc(C4CCOCC4)n3)n2)c1 [Compound 326]
Marked response: 0.5 to 5 µM

Exam item: Look up EC50: Cc1cccc(Oc2ccn(-c3cc(N4CCOCC4)nc(OCCc4cnn(C)c4)n3)n2)c1 [Compound 346]
Marked response: 0.02 to 0.1 µM

Exam item: Looking for the measured EC50 of CO[C@@H](CO)c1nc(N2CCO[C@H](C)C2)cc(-n2ccc(-c3cccc(C)c3)n2)n1 (single isomer, unassigned) [Compound 308] , can you help?
Marked response: 0.5 to 5 µM

Exam item: Any idea what its EC50 is? The compound is COC(CO)c1nc(N2CCOCC2)cc(-n2nc(-c3c[nH]c4ccccc34)cc2C)n1 (single isomer, unassigned) [Compound 260]
Marked response: < 0.02 µM

Exam item: Which EC50 value belongs to COCc1nc(N2CCOCC2)cc(-n2ccc(-c3ccccc3)n2)n1 [Compound 69] ?
Marked response: 0.5 to 5 µM

Exam item: Requested read-out: EC50. Entry: Cn1cc(C(O)c2nc(N3CCOCC3)cc(-n3ccc(-c4ccccc4)n3)n2)cn1 (stereo not shown) [Compound 184]
Marked response: 0.1 to 0.5 µM
